Measured values drawn from patent US8962608B2 for this set.

Quick list: pIC50 per entry.
# System under test: JAK2 (recombinant purified GST-tagged catalytic domain) (Homo sapiens (Human))
# Protocol description: biochemical
pIC50: −log10 of the molar value.

Compound | pIC50
N#C[C@H]1CC(NC(C2CC2)C2CC2)CC[C@@H]1n1cc(C(N)=O)c(Nc2ccc(S(=O)(=O)C(F)(F)F)cc2)n1 (single isomer, unassigned) | 6.65
N#C[C@H]1CCCC[C@@H]1n1cc(C(N)=O)c(Nc2ccc(OC(F)F)nc2)n1 (racemic) | 7.41
N#C[C@H]1C[C@H](NCc2c(F)cccc2F)CC[C@@H]1n1cc(C(N)=O)c(Nc2ccc(C(F)(F)F)cc2)n1 (single isomer, unassigned) | 6.30
CN(C)[C@@H]1CC[C@H](n2cc(C(N)=O)c(Nc3ccc(Cl)c(F)c3)n2)[C@@H](C#N)C1 (single isomer, unassigned) | 6.76
N#C[C@H]1C[C@@H](NCC(F)F)CC[C@@H]1n1cc(C(N)=O)c(Nc2ccc(Cl)c(F)c2)n1 (single isomer, unassigned) | 7.46
CN(C(C1CC1)C1CC1)[C@@H]1CC[C@H](n2cc(C(N)=O)c(Nc3ccc(S(=O)(=O)C(F)(F)F)cc3)n2)[C@@H](C#N)C1 (single isomer, unassigned) | 6.77

###

# System under test: JAK2 (recombinant purified GST-tagged catalytic domain) (Homo sapiens (Human), UniProt O60674);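 also: biochemical JAK kinase assay with HTRF detection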
# Sequence (O60674 849-1124): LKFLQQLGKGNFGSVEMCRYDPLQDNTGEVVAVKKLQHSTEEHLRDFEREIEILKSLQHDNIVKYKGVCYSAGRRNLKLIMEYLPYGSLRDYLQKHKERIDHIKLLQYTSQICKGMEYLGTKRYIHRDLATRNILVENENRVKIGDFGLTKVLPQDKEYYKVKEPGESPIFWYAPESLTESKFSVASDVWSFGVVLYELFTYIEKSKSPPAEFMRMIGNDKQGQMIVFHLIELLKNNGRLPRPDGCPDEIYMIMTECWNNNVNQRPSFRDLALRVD
pIC50: −log10 of the molar value.
Outcome: Yes for pIC50 of at least 7; No for anything lower.

Compound | Label value
CC(C)(C)OC(=O)NCC1CC[C@H](C#N)[C@@H](n2cc(C(N)=O)c(Nc3ccc(F)cc3)n2)C1 (single isomer, unassigned) [Example 11-9] | No
N#C[C@@H]1CCCC(F)[C@@H]1n1cc(C(N)=O)c(Nc2ccccc2)n1 (stereo partly shown) | No
N#C[C@H]1CC[C@@H](NCc2ccccc2)C[C@@H]1n1cc(C(N)=O)c(Nc2ccc(F)cc2)n1 (mixture of isomers) | No
CS(=O)(=O)N[C@@H]1CC[C@H](n2cc(C(N)=O)c(Nc3ccc(F)cc3)n2)[C@@H](C#N)C1 (mixture of isomers) | Yes
N#C[C@@H]1CCC2(C[C@@H]1n1cc(C(N)=O)c(Nc3ccccc3)n1)OCCO2 (single isomer, unassigned) [Example 45-4] | Yes
CC(C)(C)OC(=O)NCC1CC[C@@H](C#N)[C@@H](n2cc(C(N)=O)c(Nc3ccc(F)cc3)n2)C1 (mixture of isomers) | No
CC(C)(C)OC(=O)C1CC[C@@H](C#N)[C@@H](n2cc(C(N)=O)c(Nc3ccccc3)n2)C1 (mixture of isomers) | No
N#C[C@@H]1CCC2(C[C@@H]1n1cc(C(N)=O)c(Nc3ccccc3)n1)OCCO2 (single isomer, unassigned) [Example 45-2] | Yes
CC1(C)CN(C(=O)[C@@H]2CC[C@@H](n3cc(C(N)=O)c(Nc4ccc(Cl)cc4)n3)[C@H](C#N)C2)C1 (single isomer, unassigned) | No
CN[C@@H]1CC[C@H](C#N)[C@@H](n2cc(C(N)=O)c(Nc3ccc(F)cc3)n2)C1 (mixture of isomers) | No
CS(=O)(=O)c1ccc(Nc2nn([C@H]3CCC[C@@H]3C#N)cc2C(N)=O)cc1 (mixture of isomers) | Yes
C[C@]1(C#N)CC[C@@H](F)C[C@@H]1n1cc(C(N)=O)c(Nc2ccc(F)cc2)n1 (mixture of isomers) | Yes
N#C[C@H]1CCCCC1n1cc(C(N)=O)c(Nc2ccc(S(=O)(=O)C(F)F)c(CO)c2)n1 (mixture of isomers) | Yes
N#CC1CCC2(CC1n1cc(C(N)=O)c(Nc3ccccc3)n1)OCCO2 (stereo not shown) | Yes
CC[N+]1([C@H]2CC[C@H](n3cc(C(N)=O)c(Nc4ccc(Cl)cc4)n3)[C@@H](C#N)C2)CCC1 | Yes
CC1(C)CC[C@H](C#N)[C@@H](n2cc(C(N)=O)c(Nc3ccccc3)n2)C1 (mixture of isomers) | No
CC1CCC(C#N)C(n2cc(C(N)=O)c(Nc3ccccc3)n2)C1 (stereo not shown) | Yes
N#C[C@H]1C[C@@H](NCC(F)F)CC[C@@H]1n1cc(C(N)=O)c(Nc2ccc(S(=O)(=O)C(F)F)cc2)n1 (single isomer, unassigned) | Yes
N#C[C@H]1C[C@@H](NCC2(O)CC2)CC[C@@H]1n1cc(C(N)=O)c(Nc2ccc(Cl)cc2)n1 (single isomer, unassigned) | Yes
CC1(C)CC[C@@H](C#N)[C@@H](n2cc(C(N)=O)c(Nc3ccccc3)n2)C1 (mixture of isomers) | Yes
CC(C)(C)OC(=O)C1CC[C@H](C#N)[C@@H](n2cc(C(N)=O)c(Nc3ccccc3)n2)C1 (mixture of isomers) | Yes
CS(=O)(=O)c1ccc(Nc2nn([C@H]3CCCC[C@H]3C#N)cc2C(N)=O)cc1 (single isomer, unassigned) [Example 42-4] | Yes

###

# System under test: JAK1 (recombinant purified GST-tagged catalytic domain) (Homo sapiens (Human))
# Sequence (P23458 875-1153): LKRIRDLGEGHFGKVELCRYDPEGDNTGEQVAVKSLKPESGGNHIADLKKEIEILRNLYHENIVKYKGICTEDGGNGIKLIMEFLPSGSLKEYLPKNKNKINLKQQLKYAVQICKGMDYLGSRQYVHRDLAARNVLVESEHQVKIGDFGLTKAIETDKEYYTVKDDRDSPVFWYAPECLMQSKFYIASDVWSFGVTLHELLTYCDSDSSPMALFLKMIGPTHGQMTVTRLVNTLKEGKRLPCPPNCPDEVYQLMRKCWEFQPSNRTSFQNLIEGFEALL
# Protocol description: biochemical
pIC50: −log10 of the molar value.
Quantity kind: pIC50

Compound | Measured
N#C[C@H]1C[C@@H](N2CC(O)C2)CC[C@@H]1n1cc(C(N)=O)c(Nc2ccc(S(=O)(=O)C(F)(F)F)cc2)n1 (single isomer, unassigned) [Example 28-151] | 9.89
CC1(O)CN([C@H]2CC[C@H](n3cc(C(N)=O)c(Nc4ccc(C(F)(F)F)cc4)n3)[C@@H](C#N)C2)C1 (single isomer, unassigned) [Example 28-198] | 9.82
C[C@H](N[C@H]1CC[C@H](n2cc(C(N)=O)c(Nc3ccc(Cl)c(F)c3)n2)[C@@H](C#N)C1)C1CC1 (single isomer, unassigned) [Example 28-71] | 8.70
Cn1cc(-c2cncc(Nc3nn(C4CCCC[C@@H]4C#N)cc3C(N)=O)c2)cn1 (single isomer, unassigned) [Example 21-1] | 8.22
N#C[C@@H]1C[C@H](C(=O)N[C@H](C2CC2)C(F)(F)F)CC[C@H]1n1cc(C(N)=O)c(Nc2ccc(Cl)cc2)n1 (single isomer, unassigned) [Example 35-25] | 7.68
CC1CN([C@H]2CC[C@H](n3cc(C(N)=O)c(Nc4ccccc4)n3)[C@@H](C#N)C2)C1 (single isomer, unassigned) [Example 28-141] | 9.00

###

# System under test: JAK1 (recombinant purified GST-tagged catalytic domain) (Homo sapiens (Human))
# Protocol description: biochemical
pIC50: −log10 of the molar value.
Reported pIC50 values for a set of compounds

Compound | pIC50
N#C[C@H]1CCCC[C@@H]1n1cc(C(N)=O)c(Nc2ccc(S(=O)(=O)NC3CCCCC3)cc2)n1 (single isomer, unassigned) | 9.30
CC(C)(C(=O)O)c1ccc(Nc2nn([C@@H]3CCCC[C@H]3C#N)cc2C(N)=O)cc1 (single isomer, unassigned) | 9.92
N#Cc1ncc(Nc2nn([C@H]3CCCC[C@@H]3C#N)cc2C(N)=O)cc1F (single isomer, unassigned) | 8.15
COC1CN(C2CC[C@H](n3cc(C(N)=O)c(Nc4ccc(S(=O)(=O)C(F)(F)F)cc4)n3)[C@@H](C#N)C2)C1 (single isomer, unassigned) | 9.35
CC(C)(C)NC(=O)[C@@H]1CC[C@@H](n2cc(C(N)=O)c(Nc3ccc(Cl)cc3)n2)[C@H](C#N)C1 (single isomer, unassigned) | 7.33
N#C[C@H]1C[C@@H](NCC(F)(F)F)CC[C@@H]1n1cc(C(N)=O)c(Nc2ccc(Cl)cc2)n1 (single isomer, unassigned) | 8.52

###

# System under test: JAK1 (recombinant purified GST-tagged catalytic domain) (Homo sapiens (Human));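 also: biochemical assay with HTRF read-out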
# Protocol description: biochemical
pIC50: −log10 of the molar value.
In this scheme, each record receives a class according to its pIC50; the ranges are I (below 8), II (8 to below 9), III (9 or more)

Compound | Label value
CN(C)[C@H]1CC[C@H](n2cc(C(N)=O)c(Nc3ccc(Cl)c(F)c3)n2)[C@@H](C#N)C1 (single isomer, unassigned) | II
CC(C)(C)NC(=O)c1cncc(Nc2nn([C@H]3CCCC[C@@H]3C#N)cc2C(N)=O)c1 (single isomer, unassigned) | I
N#C[C@H]1C[C@@H](C(=O)NC2CC(F)(F)C2)CC[C@@H]1n1cc(C(N)=O)c(Nc2ccc(Cl)cc2)n1 (single isomer, unassigned) | I
CN(C)[C@@H]1CCC(n2cc(C(N)=O)c(Nc3ccc(S(=O)(=O)C(F)(F)F)cc3)n2)[C@@H](C#N)C1 (mixture of isomers) | III
C[C@@](O)(c1ccc(Nc2nn([C@H]3CCCC[C@@H]3C#N)cc2C(N)=O)cn1)C(F)(F)F (single isomer, unassigned) | II
COCC(C)(C)N(C)[C@H]1CCC(n2cc(C(N)=O)c(Nc3ccc(Cl)cc3)n2)[C@@H](C#N)C1 (single isomer, unassigned) | II
N#C[C@H]1C[C@@H](N2CCC2)CC[C@@H]1n1cc(C(N)=O)c(Nc2ccc(C(F)(F)F)cc2)n1 (single isomer, unassigned) | III
CS(=O)(=O)N[C@H]1CC[C@H](n2cc(C(N)=O)c(Nc3ccc(Cl)cc3)n2)[C@@H](C#N)C1 (racemic) | III
